Source of measurements: patent US20070224198A1

- tgt: Recombinant human Factor IX (rhFIX, Genetics Institute) (human, UniProt P00740 47-461)
- Sequence (P00740 47-461 limits assumed): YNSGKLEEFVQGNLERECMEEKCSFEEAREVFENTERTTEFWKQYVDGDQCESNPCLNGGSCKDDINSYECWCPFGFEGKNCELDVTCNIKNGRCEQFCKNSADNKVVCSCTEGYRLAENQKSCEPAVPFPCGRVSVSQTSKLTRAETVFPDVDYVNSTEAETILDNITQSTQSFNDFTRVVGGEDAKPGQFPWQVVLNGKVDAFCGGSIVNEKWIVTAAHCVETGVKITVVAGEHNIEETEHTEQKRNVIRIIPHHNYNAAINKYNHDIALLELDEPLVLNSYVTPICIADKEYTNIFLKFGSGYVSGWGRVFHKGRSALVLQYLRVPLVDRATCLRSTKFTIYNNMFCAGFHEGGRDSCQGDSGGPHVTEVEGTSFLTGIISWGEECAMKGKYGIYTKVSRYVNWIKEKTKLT
- assay.explanation: titration calorimetry, 37 C, 10 mM CaCl2
# reported pKd; entries follow
To interpret pKd, take it as minus log10 of a concentration measured in moles per litre.

binder	reported.result
murine anti-Factor IX monoclonal antibody BC2 (antibody, mouse IgG2a, V domains shown, also called BC2 mAb; BC2 Antibody) VH: QIQLVQSGPELKKPGETVKISCKASGYTFTNYGMNWVKQAPGKGLKWMGWINTRNGKSTYVDDFKGRFAFSLESSASTANLQIDNLKDEDTATYFCTREGNMDGYFPFTYWGQGTLVTVSA VL: QIVLSQSPAILSASPGEKVTMTCRASSSVNYMHWYQQKPGSSPKPWIYATSNLASGVPARFSGSGSGTSYSLTISRVEAEDAATYYCQQWSINPRTFGGGTKLEIKR	7.70

## Input May I ask what pKd has been recorded for humanized anti-human Factor IX monoclonal antibody SB 249413 (antibody, human IgG1, V domains shown, also called F9HZHC 1-0 / F9HZLC 1-0) VH: QVQLVQSGSELKKPGASVKVSCKASGYTFTNYGMNWVRQAPGQGLEWMGWINTRNGKSTYVDDFKGRFVFSLDTSVSTAYLQISSLKADDTAVYYCAREGNMDGYFPFTYWGQGTLVTVSS VL: EIVLTQSPATLSLSPGERATLSCRASSSVNYMHWYQQRPGQAPRLLIYATSNLASGIPARFSGSGSGTDFTLTISSLEPEDFAVYYCQQWSINPRTFGGGTKVEIKR ?
## Output 7.92
